Measured values drawn from paper PMC9598367 for this set.

Would you mind telling me the reported melting point of each entry?

See these solved cases before continuing.
Q: Check the records and state melting point for Clc1cccc2c(-c3cncn3Cc3c[nH]c4ccccc34)c[nH]c12
Ans: 165 to 166 °C

Q: Provide only the value of recorded melting point for COc1ccc(Cn2cncc2-c2c[nH]c3cc(Cl)ccc23)cc1
Ans: 178 to 179 °C

Q: Give melting point for COc1ccc(Cn2cncc2-c2c[nH]c3ccccc23)cc1
Ans: 159 to 160 °C

For every item below, please supply its melting point.
1. CCCCCn1cncc1-c1c[nH]c2cccc(Cl)c12
2. COc1ccc(-c2cncn2CCc2c[nH]c3ccccc23)cc1
3. COc1ccc2c(-c3cncn3Cc3ccccc3)c[nH]c2c1
4. Brc1ccc2[nH]cc(-c3cncn3CCc3ccccc3)c2c1
5. Fc1ccc2[nH]cc(-c3cncn3CCc3ccc4c(c3)OCO4)c2c1

Ans:
1: 188 to 189 °C; 2: 169 to 170 °C; 3: 66 to 67 °C; 4: 110 to 111 °C; 5: > 200 °C

Dear colleague, could you please provide melting point for the molecules listed below?
1. COc1ccc(Cn2cncc2-c2c[nH]c3cccc(Cl)c23)cc1
2. COc1ccc(OC)c(CCn2cncc2-c2c[nH]c3cc(Br)ccc23)c1

Ans:
1. 74 to 75 °C
2. 133 to 134 °C

* * *

Experiment: HEK293 cytotoxicity assay (resazurin)
Format: cell-based, human
Conditions: human; concentration at 50% cytotoxicity on HEK293 cells; mean (n = 2)
Method: For the HEK293 cytotoxicity assay, cells were counted manually in a Neubauer hemocytometer and plated at a density of 5000 cells/well into each well of the 384-well plates containing the 25× (2 μL) concentrated compounds. The medium used was Dulbecco’s modified eagle medium (DMEM) supplemented with 10% fetal bovine serum (FBS). […] After final incubation fluorescence intensity was measured as Fex 560/10 nm, em 590/10 nm (F560/590) using a Tecan M1000 Pro monochromator plate reader. […]
Hi there, I'd appreciate the recorded CC50 at 20 h for every entry that follows.
Answers are plain numbers, in µg/mL.

Use these answered entries as a reference point.
Q: Input COc1ccc(CCn2cncc2-c2c[nH]c3cc(F)ccc23)cc1 [Compound 25] , output reported CC50 at 20 h.
Ans: 27

Q: Please supply the value of reported CC50 at 20 h for the item COc1ccc(Cn2cncc2-c2c[nH]c3ccccc23)cc1 [Compound 11]
Ans: 25.6

Q: For Brc1ccc2[nH]cc(-c3cncn3Cc3ccc(I)cc3)c2c1 [Compound 9] , write its CC50 at 20 h.
Ans: 5.1

Q: Answer with the recorded CC50 at 20 h for the compound listed here: Fc1ccc2c(-c3cncn3Cc3ccc(I)cc3)c[nH]c2c1 [Compound 6]
Ans: 15.6

Q: Output CC50 at 20 h of COc1ccc(CCn2cncc2-c2c[nH]c3ccc(Br)cc23)cc1 [Compound 27]
Ans: 16

Here is another compound to look at.
Q: Specify reported CC50 at 20 h for the compound shown: Brc1ccc2c(-c3cncn3CCc3ccccc3)c[nH]c2c1 [Compound 22]
Ans: 12.7

* * *

recorded_metric: melting point

Below: 5 molecules and their reported melting point.
Q: Name the recorded melting point of the item Clc1ccc2[nH]cc(-c3cncn3Cc3ccccc3)c2c1 in your answer.
Ans: 78 to 79 °C

Q: Report melting point, nothing else, for this molecule: COc1ccc2[nH]cc(-c3cncn3Cc3c[nH]c4ccccc34)c2c1
Ans: 97 to 98 °C

Q: Give melting point for Fc1cccc2[nH]cc(-c3cncn3CCc3c[nH]c4ccccc34)c12
Ans: > 230 °C

Q: Given the molecule Clc1ccc2[nH]cc(-c3cncn3Cc3ccc(I)cc3)c2c1 , write its reported melting point.
Ans: > 200 °C

Q: Return melting point (reported value) for this molecule: Ic1ccc(Cn2cncc2-c2c[nH]c3ccccc23)cc1
Ans: > 200 °C

List the reported melting point of each molecule below.
1. COc1ccc(Cn2cncc2-c2c[nH]c3c(Cl)cccc23)cc1
2. Fc1cccc2[nH]cc(-c3cncn3CCc3ccccc3)c12
3. COc1ccc2c(-c3cncn3CCc3c[nH]c4ccccc34)c[nH]c2c1
4. Clc1cccc2[nH]cc(-c3cncn3Cc3ccccc3)c12

Ans:
220 to 221 °C
181 to 182 °C
81 to 82 °C
198 to 199 °C
